Consider the following binders and their measured Kd readings.
molecular target: T1, H3.3/H4 (human | X. laevis, UniProt P84243 1-136; P62799 1-103); experiment: ITC + fluorescence polarisation; range of dissociation constants printed 'depending on the assay used' (ITC and FP competition against FITC-UBN1(127–148)); 750 mM NaCl buffer; settings: both partners purified
T1 construct: histone H3.3, human, from a human cDNA library (ATCC 77430); also called H3.3(FL)/H4(FL); FL H3.3/H4; not shown: His6, N-terminal, cleaved; copies: 2 + 2

[[record]]
binder = "IQDLIDMGYGYDESDSFIDNSEAYDEL (also called UBN1-HRD peptide; source: synthetic peptide (Genscript)) [UBN1(122–148) peptide]"
obsvalue = "40 to 46 µM"


In the following, a different binder is considered.
Item: UBN1(92–175) (domain or fragment, also called UBN1 WT; source: E. coli BL21-Gold(DE3), purified (glutathione agarose, TEV cleavage, gel filtration); not shown: GST, N-terminal, cleaved) NDEEKERHKVEALARKFEEKYGGKKRRKDRIQDLIDMGYGYDESDSFIDNSEAYDELVPASLTTKYGGFYINSGTLQFRQASES | Kd: 7 to 17 µM

Attribution: paper PMC4510971
